The reported measurements were obtained from PubChem BioAssay (NCATS).

- measurement_notes: qHTS for Inhibitors of the Functional Ribonucleoprotein Complex (vRNP) of Lassa (LASV) Arenavirus: LASV Primary Screen - GLuc reporter signal (AID 1347082); further: nearly all actives have a fitted effect of over 60% in size
- experimental_context: LASV minigenome vRNP, Gaussia luciferase reporter; series mostly up to 57.5 µM
Inconclusive results are not listed. Active and inactive are the calls of the source. The call rests on the fitted dose curve; tested in HEK293 reporter line.
Outcomes: Y = active, N = inactive

>>> class_name("CC(C)C[C@H](NC(=O)c1cc2ccccc2s1)C(=O)N1CCN(C(=O)[C@H](CO)NS(=O)(=O)c2ccc(Cl)cc2Cl)CC1")
"N"
>>> class_name("Cc1ccc2nc(NCCN)c3ncc(C)n3c2c1")
"Y"
>>> class_name("CC(O)C1C(=O)N2C(C(=O)O)=C(SC3CNC(C(=O)N(C)C)C3)C(C)C12 (centres undefined)")
"N"
>>> class_name("CC(C)OC(=O)[C@H](C)N[P@](=O)(OC[C@H]1O[C@@H](n2ccc(=O)[nH]c2=O)[C@](C)(F)[C@H]1O)Oc1ccccc1")
"N"
>>> class_name("O=c1oc2cc(O)ccc2s1")
"N"
>>> class_name("c1ccc(Nc2cccc3ccccc23)cc1")
"N"
>>> class_name("O=c1c2c(O)cc(O)cc2oc2c(O)ccc(O[C@H]3O[C@@H](CO)[C@H](O)[C@@H](O)[C@@H]3O)c12")
"N"
>>> class_name("CCN1CC2(COC(=O)c3ccccc3N)CCC(OC)C34C5CC6C(OC)CC(O)(C5C6OC)C(O)(C(OC)C23)C14 (centres undefined)")
"N"
>>> class_name("C=C(C)c1cc2c(ccc3ccc(=O)oc32)o1")
"N"

---

- System: NIH3T3
- measurement_notes: Cytotoxic Profiling of Annotated Libraries Using Quantitative High-Throughput Screening (AID 1296008); further: on the % scale 0 is the no-effect control and ±100 the full control effect; nearly all actives have a fitted effect of over 60% in size
- experimental_context: Five cell lines viability, CellTiter-Glo ATP luminescence, 48-72 h; stronger effect = lower value
Inconclusive results are not listed.
Entries and their measured max response follow.
parameter_measured: max response (%)

>>> test_result("COc1ccc2c3c4n(c2c1)[C@@H](C=C(C)C)OOC(C)(C)C[C@@H]4N1C(=O)[C@@H]2CCCN2C(=O)[C@]1(O)[C@H]3OCC=C(C)C")
0.42
>>> test_result("C=C1CC[C@H]2[C@@H](/C=C(\\C)C(=O)[C@@]3(OC(C)=O)C[C@H](C)[C@H](OC(=O)c4ccccc4)[C@@H]3[C@H]1OC(C)=O)C2(C)C")
-4.22
>>> test_result("CO[C@H]1C[C@H](O[C@H]2CC[C@@]3(C)C(=CCC4C3CC[C@]3(C)[C@@H](C5=CC(=O)OC5)CC[C@]43O)C2)O[C@@H](C)[C@@H]1O[C@@H]1O[C@H](CO[C@@H]2O[C@H](CO)[C@@H](O)[C@H](O)[C@H]2O)[C@@H](O)[C@H](O)[C@H]1O (some centres not stated)")
-5.72
>>> test_result("Cc1ccc(Cn2nc(C(=O)N[C@@H]3C(C)(C)[C@@H]4CC[C@@]3(C)C4)cc2-c2ccc(Cl)c(C)c2)cc1")
-3.82
>>> test_result("COC(=O)[C@@]1(C)C(=O)C=C[C@]2(C)c3c(O)cc(C(C)C)cc3[C@H](O)[C@@H](OC(C)=O)C12 (some centres not stated)")
-1.38
>>> test_result("C[C@H]1CN(CC[C@H](O)C2CCCCC2)CC[C@@]1(C)c1cccc(O)c1")
-4.6
>>> test_result("COc1ccsc1CNCC[C@@]1(c2ccccn2)CCOC2(CCCC2)C1")
-1.76

---

- measurement_notes: Confirmatory screen GU Rhodamine qHTS for Zika virus inhibitors qHTS (AID 1347157); further: potency means the concentration at half of the fitted maximal effect; nearly all actives have a fitted effect of over 70% in size
- experimental_context: purified enzyme assay, Rhodamine110 substrate fluorescence, 15 min; series mostly up to 114 µM
Results filed as inconclusive are left out. The source made the active and inactive calls. Calls follow the shape of the dose curve; as a rule, active = well fitted inhibition curve with a large enough effect; inconclusive = small, poorly fitted or top-dose-only effect; inactive = flat fitted curve, though single readings scatter.
parameter_measured: Potency

>>> test_result("Oc1c(Cl)c(Cl)c(Cl)c(Cl)c1Cl")
"7.08 µM (active)"
>>> test_result("CC(C)=CCC[C@]1(C)C=Cc2c(O)c3c(c(CC=C(C)C)c2O1)O[C@]12C(=C[C@@H]4CC1C(C)(C)O[C@@]2(C/C=C(/C)C(=O)O)C4=O)C3=O")
"1.56 µM (active)"
>>> test_result("CNc1ccc2oc(C[C@H]3O[C@@]4(CC[C@H]3C)O[C@H](C(C)C(=O)c3ccc[nH]3)[C@H](C)C[C@H]4C)nc2c1C(=O)O (stereo not given in full)")
"13.9 µM (active)"
>>> test_result("O=c1c(O)c(-c2ccc(O)c(O)c2)oc2c(O)c(O)cc(O)c12")
"22.4 µM (active)"
>>> test_result("CC/C=C/C=C/C1(C)OC(OC)=C(C(=O)C2C(C)C(=O)c3cc(OC)c(O)c(O)c3C2(C)O)C1=O (stereo not given)")
"9.61 µM (active)"

---

- Test system: Es-2
- measurement_notes: Primary qHTS to identify gynecologic anti-cancer compounds using libraries of approved drugs and bioactive compounds (AID 1345084); further: nearly all actives have a fitted effect of over 55% in size
- experimental_context: Gynecologic cancer cell panel viability, ATPlite luminescence, 48 h; series mostly up to 57.5 µM
Inconclusive results are not listed. Active and inactive are the calls of the source. The call rests on the fitted dose curve; in most records, active means well fitted cell-killing curve with a large enough effect; inconclusive means small, poorly fitted or top-dose-only effect, or effect the other way; inactive means flat fitted curve, though single readings scatter.
Outcomes: active, inactive

>>> class_name("C[C@]12CC[C@H](O)C[C@H]1CC[C@@H]1[C@@H]2[C@H](O)C(=O)[C@]2(C)[C@@H](c3ccc(=O)oc3)CC[C@]12O")
"active"
>>> class_name("CCCN(CCC)[C@@H]1CCc2ccc3[nH]c(C#N)cc3c2C1")
"inactive"
>>> class_name("CC(=O)NCCCOc1ccc(C(=O)N2CCC(N3C(=O)CCc4ccccc43)CC2)cc1")
"inactive"
>>> class_name("C[C@@H]1O[C@@H](O[C@H]2CC[C@@]3(C)C(CC[C@@H]4C3CC[C@]3(C)[C@@H](C5=CC(=O)OC5)CC[C@]43O)C2)[C@H](O)[C@H](O)[C@H]1O (stereo partly drawn)")
"active"
>>> class_name("CN1C(=O)C(Cc2ccc3ccccc3c2)N=C(c2ccc(O)cc2)c2cc(Cl)ccc21 (stereo not drawn)")
"inactive"
>>> class_name("C=CCN1CC[C@]23c4c5ccc(O)c4O[C@H]2[C@@H](O)CC[C@@]3(O)[C@H]1C5")
"inactive"
>>> class_name("CN1CCCCC1Cn1cc(C(=O)c2cc([N+](=O)[O-])ccc2I)c2ccccc21 (stereo not drawn)")
"inactive"
>>> class_name("CC1=CC2/C=C(\\C)CCC(O)C(O)/C=C/C(=O)OC23C(=O)NC(CC(C)C)C3C1C (stereo not drawn)")
"inactive"

---

- measurement_notes: qHTS for differential inhibitors of proliferation of Plasmodium falciparum line HB3 (AID 1886);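 further: parasites grown with compound for 72 h before SYBR Green readout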
- experimental_context: Plasmodium falciparum HB3 proliferation inhibition; series mostly up to 28.7 µM
Results filed as inconclusive are left out. Active and inactive are the calls of the source. Calls come from the whole dose curve; as a rule, active = well fitted curve in the direction sought with a large enough effect; inconclusive = small, poorly fitted or top-dose-only effect, or another doubt; inactive = no such curve, though single readings can be large or run the other way.
Outcomes: active, inactive

>>> class_name("N[C@@H](Cn1cc(I)c(=O)[nH]c1=O)C(=O)O")
"inactive"
>>> class_name("CN1CCN(c2ccc3ccccc3n2)CC1")
"inactive"
>>> class_name("N#CC(C#N)=Cc1ccc([N+](=O)[O-])c(O)c1")
"inactive"
>>> class_name("CCCCCCCCCC[Si](C)(C)CCC(=O)NC(Cc1ccc(C)cc1)c1ccccc1 (stereo unspecified)")
"active"
>>> class_name("COc1cc(CCN)ccc1O")
"inactive"
>>> class_name("CN1CCc2cc(O)cc3c2C1Cc1ccc(O)c(O)c1-3 (stereo unspecified)")
"active"

---

- measurement_notes: qHTS Assay for Lipid Storage Modulators (AID 1519); further: on the % scale 0 is the no-effect control and ±100 the full control effect
- experimental_context: Drosophila S3 cells, BODIPY lipid droplet/cell ratio, laser cytometry; at 57.5 µM (top of the series); cells loaded with oleic acid
Records with an inconclusive call do not appear.
parameter_measured: activity change, negative = inhibition (%)

>>> test_result("C=C(C)[C@H]1C2C(=O)O[C@H]1[C@H]1OC(=O)[C@@]34O[C@@H]3C[C@]2(O)[C@@]14C")
2.82
>>> test_result("CCCN[C@@H]1CCc2c(OC)cccc2[C@@H]1C")
-0.687
>>> test_result("CCC1CN2CCC1CC2C(O)c1ccnc2ccccc12 (centres undefined)")
-3.02
>>> test_result("C=CCN1CCC2(C)c3cc(O)ccc3C[C@H]1[C@H]2C")
-8.46
>>> test_result("Cl.Cl.Cl.Cl.Cl.Cl.N.N.N.N.NNNNN.NNNNN.O.O.[Ru].[Ru].[Ru]")
-5.89
>>> test_result("COc1ccn(C)c(=O)c1C#N")
1.07
>>> test_result("O[C@H]1CCCC[C@H]1N1CCC(c2ccccc2)CC1")
0.117
>>> test_result("CCN(CC)/[N+]([O-])=N/O")
8.09
>>> test_result("c1cncc(C2CCCCN2)c1 (centres undefined)")
4.14
>>> test_result("CC(C)[C@@H]1CN[C@H](C(=O)O)[C@@H]1CC(=O)O")
5.36
>>> test_result("OC1(c2ccc(Cl)cc2)CCN(Cc2c[nH]c3ccccc23)CC1")
1.03
>>> test_result("O=C(O)[C@@H]1C[C@H]2C[C@@H](CP(=O)(O)O)CC[C@H]2CN1")
-1.59
>>> test_result("Cc1ccc(C[N+](C)(C)C)o1")
4.98
>>> test_result("O=c1c(O)c(-c2ccc(O)c(O)c2)oc2c(O)c(O)cc(O)c12")
10.8
>>> test_result("C=CCN1CC[C@]23c4c5ccc(O)c4O[C@@H]2C(=O)CC[C@]3(O)[C@H]1C5")
5.83
>>> test_result("CCCN1C[C@H](C)N([C@H](c2ccc(C(=O)N(CC)CC)cc2)c2cccc(OC)c2)C[C@H]1C")
9.16
>>> test_result("N[C@@H](CCCCP(=O)(O)O)C(=O)O")
0.372
>>> test_result("N[C@H](CCCCCP(=O)(O)O)C(=O)O")
-3.15
>>> test_result("CC(=O)O[C@@H]1CN2CCC1CC2")
2.83
